Target: UniProt P50406
Sequence (P50406 whole entry): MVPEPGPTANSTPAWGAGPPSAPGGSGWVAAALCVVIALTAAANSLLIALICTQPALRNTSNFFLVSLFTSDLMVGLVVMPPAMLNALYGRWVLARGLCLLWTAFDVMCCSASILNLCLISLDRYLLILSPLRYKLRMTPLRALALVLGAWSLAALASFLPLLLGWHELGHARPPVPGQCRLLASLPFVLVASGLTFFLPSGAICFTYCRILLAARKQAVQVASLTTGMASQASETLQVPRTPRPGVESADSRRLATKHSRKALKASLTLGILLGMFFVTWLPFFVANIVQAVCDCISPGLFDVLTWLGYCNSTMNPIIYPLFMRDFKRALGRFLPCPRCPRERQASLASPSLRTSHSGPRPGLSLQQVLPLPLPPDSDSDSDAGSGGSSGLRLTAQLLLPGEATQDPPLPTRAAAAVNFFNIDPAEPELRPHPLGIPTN
Assay: functional assay for serotonin 5-HT6 receptor inhibition (serotonin-induced intracellular cAMP, LANCE cAMP kit, HEK 293 cells)
Format: cell-based
Conditions: HEK 293 cells with expressed 5-HT6 receptor; reduction of serotonin-induced intracellular cAMP
Experimental: Determination of antagonistic activity of compounds of the general formula 1 towards 5-HT6 receptors. Compounds of the general formula 1 were tested for their ability to prevent 5-HT6 receptors activation by serotonin. […] The level of intracellular cAMP was determined using reagent kit LANCE cAMP (PerkinElmer) according to the method described by the manufacturer of the kit [http://las.perkinelmer.com/content/Manuals/MAN_LANCEcAMP384KitUser.pdf]. […]
pIC50: −log10 of the molar value. Counter-ions that a name gives are not always drawn.
The reader will find reported pIC50 values listed item by item below.
Quantity: pIC50

• CNc1nn2c(CCN)cc(C)nc2c1S(=O)(=O)c1ccccc1 [1.2.24(3).HCl] = 7.52
• CNc1nn2c(C)c(CCC(=O)N(C)CCN(C)C)c(C)nc2c1S(=O)(=O)c1ccccc1 [1.2.19(2).HCl] = 5.77
• CNc1nn2c(COC)cc(C)nc2c1S(=O)(=O)c1ccccc1 = 7.00
• CNc1nn2c(-c3ccccn3)cc(-c3ccccn3)nc2c1S(=O)(=O)c1ccccc1 = 6.14
• CNc1nn2c(CN(C)C)cc(C)nc2c1S(=O)(=O)c1cccc(F)c1 [1.2.24(12).HCl] = 7.46
• CNc1nn2c(C)ccnc2c1S(=O)(=O)c1ccccc1 = 8.52
• CSc1nn2c(C)c(Cl)c(C)nc2c1S(=O)(=O)c1ccccc1 = 6.52
• CNc1nn2cccnc2c1S(=O)(=O)c1cccc(Cl)c1 = 7.62

The reported numbers originate from patent US8618114B2.
